- SYSTEM_NAME: NEK3 (human) (UniProt P51956)
- Sequence (P51956 whole entry, looked up): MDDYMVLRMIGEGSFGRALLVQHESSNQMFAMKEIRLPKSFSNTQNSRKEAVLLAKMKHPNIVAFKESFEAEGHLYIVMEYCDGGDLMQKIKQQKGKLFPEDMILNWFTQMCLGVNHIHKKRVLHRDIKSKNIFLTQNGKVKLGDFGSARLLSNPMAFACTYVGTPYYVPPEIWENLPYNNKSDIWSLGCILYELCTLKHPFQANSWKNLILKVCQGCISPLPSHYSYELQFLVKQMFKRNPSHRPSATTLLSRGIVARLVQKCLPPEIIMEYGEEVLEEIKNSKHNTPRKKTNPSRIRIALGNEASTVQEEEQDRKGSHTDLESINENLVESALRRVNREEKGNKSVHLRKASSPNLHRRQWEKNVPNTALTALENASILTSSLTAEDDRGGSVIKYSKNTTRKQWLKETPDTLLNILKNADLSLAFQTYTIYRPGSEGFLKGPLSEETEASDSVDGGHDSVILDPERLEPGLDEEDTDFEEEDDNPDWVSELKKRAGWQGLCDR
- EXPERIMENTAL_DETAILS: radiometric filter-binding kinase assay, Kinase HotSpot
- CONDITION_SET: compound 0.5 µM; ATP 10 µM
MEASURED_ENDPOINT: residual activity (%)

1. Cn1nc2c3c(cccc31)C(=O)c1ccccc1-2 : 96.7
2. O=C(O)/C=C/c1cc(Br)c(Br)c(Br)c1Br : 83.5
3. Cc1nc2cc3nc(-c4cccs4)cnc3cc2n1C : 108
4. O=C(Nc1cccc(Nc2cc(Nc3cccc(C(F)(F)F)c3)ncn2)c1)C1CC1 : 94.4
5. COc1ccc(OC)c2c(=S)c3ccccc3[nH]c12 : 107

* * *

- SYSTEM_NAME: TYRO3 (human) (UniProt Q06418)
- Sequence (Q06418 whole entry, looked up): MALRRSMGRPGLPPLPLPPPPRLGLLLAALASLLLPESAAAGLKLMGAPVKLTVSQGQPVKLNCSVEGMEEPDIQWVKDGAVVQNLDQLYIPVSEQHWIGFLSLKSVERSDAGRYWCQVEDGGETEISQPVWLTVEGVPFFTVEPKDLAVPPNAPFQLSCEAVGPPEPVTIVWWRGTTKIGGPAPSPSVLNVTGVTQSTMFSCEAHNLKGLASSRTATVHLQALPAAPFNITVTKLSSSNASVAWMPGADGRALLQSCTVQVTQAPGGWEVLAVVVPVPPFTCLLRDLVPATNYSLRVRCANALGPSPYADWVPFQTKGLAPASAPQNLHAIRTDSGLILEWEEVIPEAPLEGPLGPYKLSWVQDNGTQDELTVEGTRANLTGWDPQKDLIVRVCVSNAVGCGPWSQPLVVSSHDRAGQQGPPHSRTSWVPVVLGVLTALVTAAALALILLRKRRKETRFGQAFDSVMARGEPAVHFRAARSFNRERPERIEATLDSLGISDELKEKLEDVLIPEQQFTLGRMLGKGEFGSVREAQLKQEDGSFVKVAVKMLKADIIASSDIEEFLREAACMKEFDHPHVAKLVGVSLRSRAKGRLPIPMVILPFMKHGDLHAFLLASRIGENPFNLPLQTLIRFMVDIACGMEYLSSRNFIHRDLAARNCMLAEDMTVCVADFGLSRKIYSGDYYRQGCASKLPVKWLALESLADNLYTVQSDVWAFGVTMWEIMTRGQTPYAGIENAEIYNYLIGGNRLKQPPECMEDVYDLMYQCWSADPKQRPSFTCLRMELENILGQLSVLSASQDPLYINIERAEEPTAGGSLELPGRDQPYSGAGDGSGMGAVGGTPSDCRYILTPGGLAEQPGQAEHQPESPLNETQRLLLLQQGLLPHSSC
- EXPERIMENTAL_DETAILS: radiometric filter-binding kinase assay, Kinase HotSpot
- CONDITION_SET: compound 0.5 µM; ATP 10 µM
MEASURED_ENDPOINT: residual activity (%)

1. Oc1ccc(Nc2nc(-c3ccc(Cl)cc3)cs2)cc1 : 102
2. O=C(Nc1cccc(Nc2cc(Nc3cccc(C(F)(F)F)c3)ncn2)c1)C1CC1 : 85.4
3. CC(C)[C@H](CO)Nc1nc(Nc2cc(N)cc(Cl)c2)c2ncn(C(C)C)c2n1 : 103
4. CC(C)c1nn(-c2c(Cl)cccc2Cl)c2nc(Cc3ccc(OCCO)cc3)nc(O)c12 : 97.8

* * *

Item-by-item account of residual activity
- SYSTEM_NAME: YES1 (human)
- EXPERIMENTAL_DETAILS: radiometric filter-binding kinase assay, Kinase HotSpot
- CONDITION_SET: compound 0.5 µM; ATP 10 µM
MEASURED_ENDPOINT: residual activity (%)

1) Cn1nc2c3c(cccc31)C(=O)c1ccccc1-2 : 94.5
2) Cn1sc(=O)n(Cc2ccccc2)c1=O : 96.3
3) Cn1cnc2cc3c(Nc4cccc(Br)c4)ncnc3cc21 : 45.7
4) CC(=O)O/N=C1\C(=C2\C(=O)Nc3cc(Br)ccc32)Nc2ccccc21 : 46.4
5) COc1ccc(OC)c2c(=S)c3ccccc3[nH]c12 : 89.2
6) O=C(Nc1cccc(Nc2cc(Nc3cccc(C(F)(F)F)c3)ncn2)c1)C1CC1 : 99.6
7) CC(C)[C@H](CO)Nc1nc(Nc2cc(N)cc(Cl)c2)c2ncn(C(C)C)c2n1 : 7.03
8) Cc1nc2cc3nc(-c4cccs4)cnc3cc2n1C : 66.9
9) CCn1cnc2c(Nc3cccc(Cl)c3)nc(N[C@@H]3CCCC[C@@H]3N)nc21 : 35.4
10) O=C1NC(=O)/C(=C\c2ccc3nccnc3c2)S1 : 89.3
11) O=C1NC(=O)C(c2c[nH]c3ccccc23)=C1c1c[nH]c2ccccc12 : 88.4
12) CN([C@@H](Cc1ccc(OS(=O)(=O)c2cccc3cnccc23)cc1)C(=O)N1CCN(c2ccccc2)CC1)S(=O)(=O)c1cccc2cnccc12 : 110
13) Oc1ccc(Nc2nc(-c3ccc(Cl)cc3)cs2)cc1 : 99.2
14) O=C1NC(=O)C(c2cn(CCCO)c3ncccc23)=C1c1cnccn1 : 80.1
15) Nc1nccc(-c2c(-c3ccc(F)cc3)ncn2C2CCNCC2)n1 : 85.3
16) O=C(O)/C=C/c1cc(Br)c(Br)c(Br)c1Br : 96.9
17) COc1cc2ncc(-c3ccccc3)nc2cc1OC : 96.1
18) O=C(CCCc1ccc(-c2ccccc2F)cc1)Nc1ccc(O)cc1 : 110
19) CC(C)c1nn(-c2c(Cl)cccc2Cl)c2nc(Cc3ccc(OCCO)cc3)nc(O)c12 : 86.3
20) COc1ccc(CNC(=O)Nc2ncc([N+](=O)[O-])s2)cc1 : 96.1
21) Nc1nnc2[nH]c3ccccc3nc1-2 : 97.1
22) COc1cc2ncnc(N3CCN(C(=O)Nc4ccc(Oc5ccccc5)cc4)CC3)c2cc1OC : 106
23) CCN(CC)CCCCN1c2ccccc2Oc2ccc(Cl)cc21 : 88.5
24) O=C1Cc2c([nH]c3ccc(Br)cc23)-c2ccccc2N1 : 59.1
25) CN(C)C[C@H]1CCn2c(c(C3=C(c4cn(C)c5ccccc45)C(=O)NC3=O)c3ccccc32)C1 : 95.3
26) O=C1Nc2ccccc2/C1=C1/Nc2ccccc2/C1=N\OCCC(O)CO (configuration not stated) : 13.4
27) O=C1Nc2ccccc2/C1=C1\Nc2ccccc2\C1=N/O : 45.1
